procedure details: physchem
Format: physicochemical
Marks after values point to notes of the source that are not given here.
A collection of molecules and their measured LogP

Use these answered entries as a reference point.
| molecule | LogP |
| --- | --- |
| O=C(NCC(F)(F)c1ccc(C2CC2)cc1Cl)c1cc(Cl)ncc1Oc1cccc(C2CC2)c1F [Compound I-075] | 5.31^[a] |
| Cc1ccc(CCNC(=O)c2cc(C3CC3)ncc2Oc2cccc(C3CC3)c2)c(C)c1 [Compound I-186] | 5.22^[a] |
| Cc1ccc(C(F)(F)CNC(=O)c2cc(Cl)ncc2Oc2cccc(C(F)(F)F)c2)c(Cl)c1 [Compound I-201] | 4.66^[a] |
| C#Cc1ccc(C(F)(F)CNC(=O)c2cc(Cl)ncc2Oc2cccc(C(F)(F)F)c2)c(Cl)c1 [Compound I-029] | 4.53^[a] |

Challenge: // query LogP value for entry Cc1ccc(CCNC(=O)c2cc(Cl)ncc2Oc2cnc3c(c2)CCC3)c(C)c1 [Compound I-227]
Response given: 3.35^[a]

Challenge: // query LogP value for entry Cc1ccc(C(F)(F)CNC(=O)c2cc(Cl)ncc2Oc2cccc(C3CC3)c2F)c(C)c1 [Compound I-061]
Response given: 5.11^[a]
